assay-remarks: alpha-synuclein stem-loop luciferase translation blockers – H4 neuroglioma cells, luminescence, confirmation (AID 1988)
Assay type: functional, cell-based
Active and inactive are the calls of the source.
measured-quantity: EC50

COc1ccccc1C(=O)NCc1ccc(-c2nc3ccccc3s2)cc1 | 0.312 µM (active)

Could you share which EC50 value was measured for Cc1ccc(C(=O)CSc2nnnn2C(C)C)c(C)c1 ?
3.7 µM (active)

Could you share which EC50 value was measured for CCCn1c2ccccc2c2nnc(SCC(=O)Nc3c(C)n(C)n(-c4ccccc4)c3=O)nc21 ?
> 120 µM (not active)

Could you share which EC50 value was measured for CCCOC(c1ccccc1)(c1ccc(C(F)(F)F)cc1)C(Oc1nc(C)cc(C)n1)C(=O)O (centres undefined) ?
8.08 µM (active)

====

Tested on: HEK293;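 also: potency for activating a luciferase reporter driven by the short GAA30 frataxin promoter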
assay-remarks: cells
recorded-conditions: Homo sapiens
Activity calls are given as the source filed them.
measured-quantity: EC50

Solved entries:
Nc1cc(Cl)c2nonc2c1[N+](=O)[O-] | > 59.7 µM (inactive)
CC1(Cc2ccc(C(F)(F)F)nc2)C(=O)Nc2cc(-c3ccccc3Cl)ccc21 (centres undefined) | > 59.6 µM (inactive)
CC1(Cc2cccc(C#N)c2)C(=O)Nc2ccc(-c3cccc(C(F)(F)F)c3)cc21 (centres undefined) | > 59.7 µM (inactive)

Please look at the following compound next.
Hi! What's the reported EC50 for COCCCN(C(=S)NC(=O)C12CC3CC(CC(C3)C1)C2)c1c(N)n(Cc2ccccc2)c(=O)[nH]c1=O on HEK293?
> 59.7 µM (inactive)

====

# Lookup of reported EC50 keyed by entry
target-or-test-system: RNA-binding protein pos-1 (Caenorhabditis elegans)
Sequence (G5EF15 whole entry, the tested form may be a part): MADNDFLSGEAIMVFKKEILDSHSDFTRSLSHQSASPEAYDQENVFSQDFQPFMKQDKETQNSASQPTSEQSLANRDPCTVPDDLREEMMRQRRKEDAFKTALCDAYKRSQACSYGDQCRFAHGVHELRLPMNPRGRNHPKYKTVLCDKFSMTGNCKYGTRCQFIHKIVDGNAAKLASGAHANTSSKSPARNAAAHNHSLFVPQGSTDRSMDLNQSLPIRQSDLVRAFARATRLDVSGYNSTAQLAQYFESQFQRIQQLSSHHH
assay-remarks: disruptors of C. elegans POS-1 RNA interaction – biochemical, fluorescence polarization, dose response (AID 1964);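 also: purified POS-1 fused to maltose binding protein made in E. coli; potency of compounds blocking POS-1 binding to fluorescent RNA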
Activity calls are given as the source filed them.

O=C(O)c1cccc(-n2cccc2/C=C2\NC(=O)N(Cc3ccc(F)cc3)C2=O)c1 | > 300 µM (not active)
CC1=NN(C(N)=S)C(=O)C1N=Nc1cccc(C(=O)O)c1 (stereo not given) | 35.1 µM (active)
Nc1ccc2[nH]c(-c3cccc(-c4nc5cc(N)ccc5[nH]4)n3)nc2c1 | > 300 µM (not active)

Could you share which EC50 value was measured for Cc1ccccc1Nc1nc(Cl)c(C=O)s1 ?
> 300 µM (not active)

Could you share which EC50 value was measured for CC1(C)c2[nH]c3ccccc3c2C[C@@H]2C(=O)N(c3ccc(F)cc3F)C(=O)N21 ?
> 300 µM (not active)

====

# Lookup of reported EC50 keyed by entry
target-or-test-system: Luciferin 4-monooxygenase (Photinus pyralis)
Sequence (P08659 whole entry): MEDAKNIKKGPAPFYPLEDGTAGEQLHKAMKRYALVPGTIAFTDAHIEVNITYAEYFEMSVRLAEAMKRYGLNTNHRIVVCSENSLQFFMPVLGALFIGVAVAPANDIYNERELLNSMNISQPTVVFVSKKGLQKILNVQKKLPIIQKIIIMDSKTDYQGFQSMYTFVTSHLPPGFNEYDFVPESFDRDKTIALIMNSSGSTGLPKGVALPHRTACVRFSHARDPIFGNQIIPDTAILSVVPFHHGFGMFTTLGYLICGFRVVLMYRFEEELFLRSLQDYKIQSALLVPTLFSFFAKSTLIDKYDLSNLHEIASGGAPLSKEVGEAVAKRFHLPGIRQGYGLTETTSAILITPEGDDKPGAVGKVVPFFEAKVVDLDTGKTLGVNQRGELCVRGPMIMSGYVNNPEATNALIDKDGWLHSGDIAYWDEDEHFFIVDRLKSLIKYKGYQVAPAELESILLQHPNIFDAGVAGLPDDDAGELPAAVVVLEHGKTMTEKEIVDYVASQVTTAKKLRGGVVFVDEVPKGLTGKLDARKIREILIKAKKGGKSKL
assay-remarks: inhibition of purified Photinus pyralis luciferase – biochemical, luminescence, dose response (AID 1891)
Active and inactive are the calls of the source.

CSc1nc(N)n2nc(-c3ccc(Cl)cc3)cc2n1 | 0.464 µM (active)
CCOC(=O)CSc1nc2ccc(N)cc2s1 | > 112 µM (not active)
O=C(NCc1ccco1)c1cc2ccc(O)cc2oc1=O | 0.288 µM (active)

Could you share which EC50 value was measured for Cc1cccc2cc(CN(CC(C)C)S(=O)(=O)c3ccccc3)c(O)nc12 ?
> 112 µM (not active)

Could you share which EC50 value was measured for C=CCn1cc(/C=N/Nc2nc3ccccc3[nH]2)c2ccccc21 ?
45.1 µM (active)

Could you share which EC50 value was measured for CCOC(=O)c1c(NC(=O)c2c(C)noc2C)sc2c1CCCCC2 ?
> 112 µM (not active)

Could you share which EC50 value was measured for Cc1ccc(NC(S)=Nc2ccc3c[nH]nc3c2)cc1 ?
> 112 µM (not active)

Could you share which EC50 value was measured for CCOC(=O)C1C(c2ccc(OC)c(OC)c2)c2c(n[nH]c2O)CC1(C)O (centres undefined) ?
> 112 µM (not active)

Could you share which EC50 value was measured for CCN(CC)CC(C)OC(=O)c1ccccc1Cl (centres undefined) ?
> 112 µM (not active)
